target: T1, OTULIN (OTU deubiquitinase with linear linkage specificity, FAM105B), His-tagged, biotin-labelled (human, UniProt Q96BN8 1-352, biotin (label; sites not stated)); test: peptide or protein array; HuProt human proteome microarray; 5 ug/5 ml biotin-labelled LUBAC or OTULIN in solution, 1 h at room temperature; Cy5-streptavidin, scanned at 635 nm; BSA as negative control; hits: Z-score >= 3 and I_(Mean_Ratio) >= 1.4; conditions: both partners purified
T1 construct: OTULIN (FAM105B), cDNA in pET28a; also called HIS-OTULIN; source: E. coli BL21 (DE3), purified (His-tag Purification Resin), labelled with biotin; not shown: His6, N-terminal, kept

{"Binder": "MIF (natural protein, human, UniProt P14174 1-115, looked up, MIF; protein on the human proteome microarray; source: spotted on the HuProt human proteome microarray) MPMFIVNTNVPRASVPDGFLSELTQQLAQATGKPPQYIAVHVVPDQLMAFGGSSEPCALCSLHSIGKIGGAQNRSYSKLLCGLLAERLRISPDRVYINYYDMNAANVGWNNSTFA", "binding result": "binds"}
{"Binder": "NUDT16L1 (natural protein, human, UniProt Q9BRJ7 1-211, looked up, NUDT16L1; protein on the human proteome microarray; source: spotted on the HuProt human proteome microarray) MSTAAVPELKQISRVEAMRLGPGWSHSCHAMLYAANPGQLFGRIPMRFSVLMQMRFDGLLGFPGGFVDRRFWSLEDGLNRVLGLGLGCLRLTEADYLSSHLTEGPHRVVAHLYARQLTLEQLHAVEISAVHSRDHGLEVLGLVRVPLYTQKDRVGGFPNFLSNAFVSTAKCQLLFALKVLNMMPEEKLVEALAAATEKQKKALEKLLPASS", "binding result": "binds"}

Origin of values: paper PMC8274477
